System: SNB-19 CNS
Assay: NCI tumour cell line growth inhibition, 48 h
Parameter TGI: see the listing below.

As a guide, the following entries are already answered.
1. COC(=O)C1(O)c2ccccc2N=C2C1CCN2C (stereo not drawn) : > 100 µM
2. Cc1cc2c(cc1Cl)SC(C(=O)c1ccc(Cl)c(Cl)c1)NS2(=O)=O (stereo not drawn) : > 100 µM
3. Cc1[nH]n(-c2ccccc2)c(=O)c1C(N(CCc1ccccc1)C1=NCC(C)S1)(C(F)(F)F)C(F)(F)F (stereo not drawn) : > 100 µM
4. O=C(/C=C/c1ccccc1)OCC1=C[C@@H](O)[C@@H]2C=CO[C@@H](OC3OC(CO)C(O)C(O)C3O)[C@H]12 (stereo partly drawn) : > 100 µM
5. C[C@H](c1ccccc1)N(CCC(=O)O)C(=O)CCN(C(=O)CCN(C(=O)CCN[C@H](C)c1ccccc1)[C@H](C)c1ccccc1)[C@H](C)c1ccccc1 : > 100 µM

Consider the compound shown here: `FC(F)(F)c1ccc(NCc2nc3ccccc3[nH]2)cc1` What is its recorded TGI?
> 100 µM

Next: `O=C(CSc1ncc(-c2ccccc2)n1-c1ccccc1)Nc1ccc(-c2nc3ccccc3s2)cc1`
> 100 µM

Please answer likewise for `OCc1ccc(N(Cc2ccc(F)cc2)CC2CCC2)cc1Cl`
27.3 µM

What do you get for O=C(c1ccccc1)N1CCC(Nc2nccs2)O1 (stereo not drawn) ?
> 10 µM
